targetSystem: T1, Recombinant Human DLL4 (delta-like protein 4) (human, UniProt Q9NR61 27-524)
T1 construct: Bought recombinant protein (R&D Systems Cat#1506-D4/CF); also called rHuman DLL4; Delta-like 4
protocolDetails: ELISA, DLL4 coated on plate; Fab at 11.11 (head prints µM, text says nM)
reportedMetric: ELISA signal
Answer with a number only.

Asked: Please indicate ELISA signal recorded for Fab VH5-51_IGHD5-18*01>3_IGHJ4*01 G100K/G104T G24T/S28R/G35V (H:KT TRV) & V3-4_IGLJ1*01 (Fab, V domains shown, Tested as a Fab made in E. coli; also called H:KT TRV & L:wt; Wildtype (light chain)) VH: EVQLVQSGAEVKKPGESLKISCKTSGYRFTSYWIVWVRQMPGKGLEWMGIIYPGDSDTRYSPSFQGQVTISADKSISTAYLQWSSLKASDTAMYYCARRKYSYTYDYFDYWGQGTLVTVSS VL: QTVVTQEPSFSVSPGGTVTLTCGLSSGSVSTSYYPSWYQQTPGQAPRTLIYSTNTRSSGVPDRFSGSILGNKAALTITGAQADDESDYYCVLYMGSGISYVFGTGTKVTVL
Given back: 0.04

Asked: Please indicate ELISA signal recorded for Fab VH5-51_IGHD5-18*01>3_IGHJ4*01 G100K/G104T G24T/S28R/G35V (H:KT TRV) & V3-4_IGLJ1*01 V91L/S96P S52M (Fab, V domains shown, Tested as a Fab made in E. coli; also called H:KT TRV & L:LP S52M) VH: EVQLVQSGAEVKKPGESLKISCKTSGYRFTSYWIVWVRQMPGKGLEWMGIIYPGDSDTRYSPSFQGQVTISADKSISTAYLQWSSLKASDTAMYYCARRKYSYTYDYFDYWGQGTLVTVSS VL: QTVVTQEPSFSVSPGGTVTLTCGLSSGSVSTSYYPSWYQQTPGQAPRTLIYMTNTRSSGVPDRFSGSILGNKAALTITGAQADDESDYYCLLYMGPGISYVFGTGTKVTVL
Given back: 0.06

Asked: Please indicate ELISA signal recorded for Fab VH5-51_IGHD5-18*01>3_IGHJ4*01 G100K/G104T G24T/S28R/G35V (H:KT TRV) & V3-4_IGLJ1*01 V91L/S96P S52G (Fab, V domains shown, Tested as a Fab made in E. coli; also called H:KT TRV & L:LP S52G) VH: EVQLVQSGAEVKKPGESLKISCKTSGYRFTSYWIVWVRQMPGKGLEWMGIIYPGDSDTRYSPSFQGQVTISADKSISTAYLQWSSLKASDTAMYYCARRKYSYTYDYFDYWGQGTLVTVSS VL: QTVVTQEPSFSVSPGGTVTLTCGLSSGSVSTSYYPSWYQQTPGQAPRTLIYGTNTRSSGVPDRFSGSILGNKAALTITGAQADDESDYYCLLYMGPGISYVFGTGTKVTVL
Given back: 0.17

Asked: Please indicate ELISA signal recorded for Fab VH5-51_IGHD5-18*01>3_IGHJ4*01 G100K/G104T G24T/S28R/G35V (H:KT TRV) & V3-4_IGLJ1*01 V91L/S96P (L:LP) (Fab, V domains shown, Tested as a Fab made in E. coli; also called H:KT TRV & L:LP) VH: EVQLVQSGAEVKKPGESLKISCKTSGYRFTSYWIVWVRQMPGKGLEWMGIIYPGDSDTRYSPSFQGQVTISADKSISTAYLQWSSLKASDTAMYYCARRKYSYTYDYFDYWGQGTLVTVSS VL: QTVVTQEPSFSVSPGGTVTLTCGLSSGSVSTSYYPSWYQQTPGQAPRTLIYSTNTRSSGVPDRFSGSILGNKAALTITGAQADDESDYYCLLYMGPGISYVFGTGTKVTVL
Given back: 0.07
